assayName: small-molecule microarray binders of probe aCHRDL2, primary screen, biochemical, biotinylated probe, 635/667 nm fluorescence (AID 1100)
experimentalContext: higher = more signal
composite z-score of -0.6 or higher: class 1. Under -0.6: class 0.

Some entries whose results are on file:
CC(CCN1CCc2nc(-c3ccccc3)c(-c3ccccc3)cc2C1)=NOC(C)CN1CCCc2nc(C)c(C)cc21 (centres undefined) ... class 1
COC(=O)CC=C[C@@H](C)[C@@H](C=NOC[C@@H](C)[C@H](OCc1ccccc1)C(C)C)NS(=O)(=O)c1ccc(C)cc1 ... class 0
COC(=O)[C@H](C)NC(=O)CCC1CC(OC(=O)NCCc2ccc(F)cc2)CC2(CCCC(COC(=O)NCCc3ccccc3OC)O2)O1 (some centres undefined) ... class 1

Task: Would you say `CCCC[C@H]1CN2[C@@H](CC[C@@H](C)[C@@H]2c2ccc(Br)cc2)C(=O)O1` shows composite z-score at minimum -0.6?
Result: class 1

Task: Would you say `O=C1[C@H]2[C@H]3[C@H](O)[C@H](O)CC(=NOCc4ccccc4)[C@H]3CC[C@H]2C(=O)N1C1CCCCC1` shows composite z-score at minimum -0.6?
Result: class 1

Task: Would you say `C=CC[C@@H]1C=C[C@H](ON=C(C)CCN2CCCc3nc(C)c(C)cc32)[C@@H](CO)O1` shows composite z-score at minimum -0.6?
Result: class 1

---

assayName: basal RPMI8226 mitochondrial membrane potential changes, profiling panel, cell-based, JC-1 fluorescence, 24 h, 100 nL compound (AID 1169); further: test concentration not given here
experimentalContext: RPMI8226 myeloma, JC-1 mitochondrial potential fluorescence, higher = more signal
metricName: z-score

Below, 6 compounds whose answers are already recorded.
O=C1C[C@@H](O)[C@@H](O)[C@@H]2[C@@H]3C(=O)N(C4CCCCC4)C(=O)[C@@H]3CC[C@@H]12 ... 0.0121
O=C1C[C@@H](O)[C@@H](O)[C@@H]2[C@@H]3C(=O)N(c4ccc(F)cc4F)C(=O)[C@@H]3CC[C@H]12 ... 0.0715
C[C@@H]1CC[C@H]2C(=O)OC(Cc3ccccc3)CN2[C@H]1c1ccc(Br)cc1 (stereo partly drawn) ... 0.558
O=C1CCCC=C1C(O)c1ccc([N+](=O)[O-])cc1 (stereo not drawn) ... 0.566
C=CC[C@@H]1C=C[C@H](ON=C(C)CCN2CCCc3nc(C)c(C)cc32)[C@@H](CO)O1 ... -0.989
CC(=O)OC[C@H]1O[C@@H](ON=C(C)CCN2CCCCc3nc(C)c(C)cc32)[C@H](OC(C)=O)[C@@H](OC(C)=O)[C@@H]1OC(C)=O ... -0.832

Task: Return the recorded z-score value; entry: `CC(CCN1CCCCc2nc(C)c(C)cc21)=NO[C@H](C)c1cn([C@@H]2COC[C@H]2O)nn1`
Result: 1.18

Task: Return the recorded z-score value; entry: `C[C@@H]1CC[C@H]2C(=O)O[C@@H](CN=[N+]=[N-])CN2[C@H]1c1ccc(Br)cc1`
Result: -1.18

---

assayName: HepG2 cell viability effects, profiling panel, calcein-AM fluorescence, 48 h, basal (AID 1164); further: test concentration not given here
experimentalContext: higher = more signal
metricName: z-score
Give a plain numeric answer without units written out.

Below, 3 molecules whose answers are already recorded.
CCN1C(=O)[C@H]2[C@H]3[C@H](O)[C@H](O)CC(=NOC[C@@H](O)COCc4ccco4)[C@H]3CC[C@H]2C1=O ... -0.0911
O=C1C[C@@H](O)[C@@H](O)[C@@H]2[C@@H]3C(=O)N(c4ccc(F)cc4F)C(=O)[C@@H]3CC[C@H]12 ... 0.0181
CC(C)[C@@H](OCc1ccccc1)[C@H](C)C=NOC[C@@H](O)[C@H]1O[C@@H]2OC(C)(C)O[C@@H]2[C@H]1O ... -0.292

Now for another entry.
Task: Return the recorded z-score value; entry: `CC(C)[C@H](NC(=O)OC(C)(C)C)[C@@H](O)CC(=O)C(C)(C)C`
Result: 0.483

---

targetOrTestSystem: Torsin-1A (Homo sapiens)
assayName: torsin A binders from cell lysate, primary screen, small-molecule microarray, wild-type, 635/667 nm (AID 1149)
experimentalContext: COS7 hTOR1A-WT lysate, 635 nm fluorescence, higher = more signal
composite z-score of 0.09 or higher: 1 (yes). Under 0.09: 0 (no).

Some entries whose results are on file:
COc1cccc([C@H](O)Cn2cc(-c3ccc(CON=C(C)C)cc3)nn2)c1 ... 1 (yes)
CC1(C)O[C@H]2OC([C@H](O)CON3C(=O)c4ccccc4C3=O)[C@H](O)[C@H]2O1 (some centres not stated) ... 0 (no)
COC(=O)[C@@H]1CC[C@H](C)[C@@H](c2ccc(C)cc2)N1C(=O)c1ccc(C=NOC[C@H]2O[C@H](c3ccccc3)C=C[C@@H]2Oc2ccc(OC)cc2)cc1 ... 0 (no)
CC(=O)OC[C@H]1O[C@H](CC=NOCC[C@@H]2C=C[C@H](OC(C)=O)[C@@H](COC(C)=O)O2)C=C[C@@H]1OC(C)=O ... 1 (yes)
CCCNC(=O)OC[C@H]1O[C@H](CCON=C[C@@H](NS(=O)(=O)c2ccc(C)cc2)[C@H](C)C=CCC(=O)OC)C=C[C@@H]1Oc1ccc(OC)cc1 ... 0 (no)
COC(=O)[C@H](C)NC(=O)CCC1CC(OC(=O)NCCc2ccc(F)cc2)CC2(CCCC(COC(=O)NCCc3ccccc3OC)O2)O1 (some centres not stated) ... 1 (yes)

Okay, next one:
Task: Would you say COC(=O)[C@H](C)NC(=O)CCC1CC(OC(=O)NCc2ccc3c(c2)OCO3)CC2(CCCC(COC(=O)NCCCN3CCCC3=O)O2)O1 (some centres not stated) shows composite z-score at minimum 0.09?
Result: 1 (yes)

---

assayName: small-molecule microarray binders of probe aXIP, primary screen, biochemical, NeuroSMM set, 635/667 nm fluorescence (AID 1119);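 further: probe is the protein aXip251-270 applied at 1 µg/mL to compound-printed slides; binding of probe to printed compounds measured as 667 nm fluorescence plus signal to noise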
experimentalContext: higher = more signal, called active from +8 up or from −8 down
composite Z-score of -0.08 or higher: Met. Under -0.08: Not met.

Some entries whose results are on file:
CCOC(=O)NN=C1C[C@@H](O)[C@@H](O)[C@@H]2[C@@H]3C(=O)N(CC)C(=O)[C@@H]3CC[C@H]12 ... Not met
CC(C)CON=C1C[C@@H](O)[C@@H](O)[C@@H]2[C@@H]3C(=O)N(C(C)(C)C)C(=O)[C@@H]3CC[C@@H]12 ... Met
COC(=O)CC=C[C@@H](C)[C@@H](C=NOC[C@@H](O)COCc1ccco1)NS(=O)(=O)c1ccc(C)cc1 ... Not met

Task: Would you say `COC(=O)[C@@H]1CC[C@H](C)[C@@H](c2ccc(C)cc2)N1C(=O)c1ccc(C=NOC[C@H]2O[C@H](c3ccccc3)C=C[C@@H]2Oc2ccc(OC)cc2)cc1` shows composite Z-score at minimum -0.08?
Result: Not met

Task: Would you say `COC(=O)[C@H](C)NC(=O)CC=C[C@@H](C)[C@@H]1C=C[C@H](O)[C@@H](CO)O1` shows composite Z-score at minimum -0.08?
Result: Met

Task: Would you say `CCOC(=O)CCN1C(=O)[C@H]2[C@H]3[C@H](O)[C@H](O)CC(=NO[C@@H]4O[C@H](CO)[C@@H](O)[C@H](O)[C@H]4O)[C@H]3CC[C@H]2C1=O` shows composite Z-score at minimum -0.08?
Result: Met

Task: Would you say `COC(=O)CC=C[C@@H](C)[C@@H](C=NOC[C@@H](O)[C@H]1O[C@@H]2OC(C)(C)O[C@@H]2[C@H]1O)OC` shows composite Z-score at minimum -0.08?
Result: Not met

---

targetOrTestSystem: Neurogenic locus notch homolog protein 2 (Homo sapiens) (UniProt Q04721)
Sequence (Q04721 whole entry, looked up): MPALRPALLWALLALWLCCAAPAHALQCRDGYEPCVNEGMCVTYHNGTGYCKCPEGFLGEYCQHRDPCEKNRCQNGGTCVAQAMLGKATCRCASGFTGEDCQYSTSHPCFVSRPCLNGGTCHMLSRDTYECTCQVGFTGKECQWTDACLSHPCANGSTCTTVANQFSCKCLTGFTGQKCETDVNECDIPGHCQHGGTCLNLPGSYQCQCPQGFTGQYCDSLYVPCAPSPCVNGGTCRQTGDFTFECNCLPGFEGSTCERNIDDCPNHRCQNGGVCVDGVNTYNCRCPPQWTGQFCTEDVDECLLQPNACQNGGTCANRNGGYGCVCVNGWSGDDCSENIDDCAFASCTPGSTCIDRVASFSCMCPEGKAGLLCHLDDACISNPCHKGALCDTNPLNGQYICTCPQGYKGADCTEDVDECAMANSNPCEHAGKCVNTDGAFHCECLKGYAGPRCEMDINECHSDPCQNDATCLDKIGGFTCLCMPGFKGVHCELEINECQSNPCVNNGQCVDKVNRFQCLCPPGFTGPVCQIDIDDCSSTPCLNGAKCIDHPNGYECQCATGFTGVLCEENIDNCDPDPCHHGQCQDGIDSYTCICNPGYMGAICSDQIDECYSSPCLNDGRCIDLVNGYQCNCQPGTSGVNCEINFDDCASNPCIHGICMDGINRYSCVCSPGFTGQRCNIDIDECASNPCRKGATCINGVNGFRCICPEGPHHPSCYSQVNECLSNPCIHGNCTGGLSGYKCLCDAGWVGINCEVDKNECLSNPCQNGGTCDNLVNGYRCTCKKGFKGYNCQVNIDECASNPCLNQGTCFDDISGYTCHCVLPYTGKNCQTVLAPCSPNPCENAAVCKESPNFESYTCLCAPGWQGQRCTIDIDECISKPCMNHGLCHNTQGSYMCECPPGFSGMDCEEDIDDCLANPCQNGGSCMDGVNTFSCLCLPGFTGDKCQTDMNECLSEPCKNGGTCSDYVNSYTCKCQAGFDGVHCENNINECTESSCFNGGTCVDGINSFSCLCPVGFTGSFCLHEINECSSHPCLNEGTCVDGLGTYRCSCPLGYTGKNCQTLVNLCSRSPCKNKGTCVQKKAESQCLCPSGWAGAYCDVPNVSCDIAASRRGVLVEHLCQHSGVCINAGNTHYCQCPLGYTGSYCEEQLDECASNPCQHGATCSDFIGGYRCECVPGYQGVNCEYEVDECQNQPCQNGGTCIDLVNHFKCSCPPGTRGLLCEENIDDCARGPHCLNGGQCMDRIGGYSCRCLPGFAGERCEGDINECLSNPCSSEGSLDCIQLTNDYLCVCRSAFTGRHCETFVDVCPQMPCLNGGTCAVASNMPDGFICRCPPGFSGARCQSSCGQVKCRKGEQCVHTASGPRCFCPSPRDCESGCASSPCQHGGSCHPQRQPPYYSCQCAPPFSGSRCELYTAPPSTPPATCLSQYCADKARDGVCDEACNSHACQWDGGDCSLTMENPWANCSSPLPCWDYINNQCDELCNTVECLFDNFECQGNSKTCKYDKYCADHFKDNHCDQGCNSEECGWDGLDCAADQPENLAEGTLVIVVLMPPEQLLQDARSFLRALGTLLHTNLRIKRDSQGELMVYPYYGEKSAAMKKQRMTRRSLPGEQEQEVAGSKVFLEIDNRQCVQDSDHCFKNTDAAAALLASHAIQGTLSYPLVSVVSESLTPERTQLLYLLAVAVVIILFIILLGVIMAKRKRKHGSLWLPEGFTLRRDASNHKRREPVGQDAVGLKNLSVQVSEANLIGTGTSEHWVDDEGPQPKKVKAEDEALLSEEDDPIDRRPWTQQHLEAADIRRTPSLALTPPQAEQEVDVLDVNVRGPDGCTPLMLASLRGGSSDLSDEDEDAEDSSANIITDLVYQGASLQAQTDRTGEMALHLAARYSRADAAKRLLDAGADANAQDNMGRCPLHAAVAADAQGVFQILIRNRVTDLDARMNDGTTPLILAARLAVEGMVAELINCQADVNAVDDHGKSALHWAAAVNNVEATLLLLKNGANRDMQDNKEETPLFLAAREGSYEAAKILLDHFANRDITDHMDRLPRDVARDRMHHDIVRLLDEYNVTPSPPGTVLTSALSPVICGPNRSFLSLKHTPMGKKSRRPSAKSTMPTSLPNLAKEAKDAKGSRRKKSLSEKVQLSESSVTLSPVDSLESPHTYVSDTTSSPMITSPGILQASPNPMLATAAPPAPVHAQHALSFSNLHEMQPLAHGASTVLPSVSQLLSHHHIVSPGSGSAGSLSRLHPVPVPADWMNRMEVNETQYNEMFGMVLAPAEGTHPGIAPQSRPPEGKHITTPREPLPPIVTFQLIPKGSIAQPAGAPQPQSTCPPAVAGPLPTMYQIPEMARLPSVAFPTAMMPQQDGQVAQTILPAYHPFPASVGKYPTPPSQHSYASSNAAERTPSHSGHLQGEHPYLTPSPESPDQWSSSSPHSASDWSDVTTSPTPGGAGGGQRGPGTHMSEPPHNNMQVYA
assayName: Notch2 binders on small-molecule microarrays, primary screen, biochemical, small-molecule microarray, 635 nm fluorescence, stem cell growth factors (AID 1073)
experimentalContext: Notch2 binding, higher = more signal
metricName: composite z-score

Below, 3 compounds whose answers are already recorded.
CC(C)=NOC[C@@H](O)[C@H]1O[C@@H]2OC(C)(C)O[C@@H]2[C@H]1O ... 1.09
CCOC(=O)[C@H](CC(C)C)NC(=O)CCC1CC(OC(=O)NCCc2ccc(F)cc2)CC2(CCCC(COC(=O)NCc3cccc(C(F)(F)F)c3)O2)O1 (some centres undefined) ... 1.14
CC(C)=NOC(C)CN1CCCc2nc(C)c(C)cc21 (centres undefined) ... 0.652

Now for another entry.
Task: Return the recorded composite z-score value; entry: `CC(C)[C@@H](OCc1ccccc1)[C@H](C)C=NOC[C@@H](O)[C@H]1O[C@@H]2OC(C)(C)O[C@@H]2[C@H]1O`
Result: 0.25

---

assayName: small-molecule microarray binders of probe aCHRDL2, primary screen, biochemical, biotinylated probe, 635/667 nm fluorescence (AID 1100)
experimentalContext: higher = more signal
metricName: composite z-score
Give a plain numeric answer without units written out.

Below, 5 molecules whose answers are already recorded.
COc1ccc(O[C@H]2C=C[C@@H](c3ccccc3)O[C@@H]2COC(=O)CCC(C)=NOC[C@@H](O)COCc2ccco2)cc1 ... 0.0183
COC(=O)[C@H](C)NC(=O)CCC1CC(OC(=O)NCc2ccc3c(c2)OCO3)CC2(CCCC(COC(=O)NCCCN3CCCC3=O)O2)O1 (stereo not given in full) ... -0.189
COc1ccc(COC(=O)NN=C2C[C@@H](O)[C@@H](O)[C@@H]3[C@@H]4C(=O)N([C@@H](C)c5ccccc5)C(=O)[C@@H]4CC[C@@H]23)cc1 ... -0.305
CCOC(=O)[C@H](CC(C)C)NC(=O)CCC1CC(OC(=O)NCc2ccc3c(c2)OCO3)CC2(CCCC(COC(=O)NCCc3ccccc3OC)O2)O1 (stereo not given in full) ... -0.497
CCN1C(=O)[C@H]2[C@H]3[C@H](O)[C@H](O)CC(=NO[C@@H]4O[C@H](CO)[C@@H](O)[C@H](O)[C@H]4O)[C@H]3CC[C@H]2C1=O ... -0.447

Task: Return the recorded composite z-score value; entry: `COc1ccc(COC(=O)NN=C2C[C@@H](O)[C@@H](O)[C@@H]3[C@@H]4C(=O)N(C[C@@H]5CCCO5)C(=O)[C@@H]4CC[C@@H]23)cc1`
Result: -0.241

Task: Return the recorded composite z-score value; entry: O=C1CCCC=C1C(O)C1CCCCC1 (stereo not given)
Result: -0.476

Task: Return the recorded composite z-score value; entry: `C[C@H]1CC[C@@H](C(=O)O)N[C@@H]1c1ccc(C#Cc2ccccc2)cc1`
Result: -0.273

Task: Return the recorded composite z-score value; entry: `CC#CCOCCC=C1c2ccccc2[C@@H](OC)[C@@H]1C`
Result: -0.42

Task: Return the recorded composite z-score value; entry: `CCc1cc2c(nc1CC)CCN(CCC(C)=NOCC[C@@H]1C=C[C@H](OC(C)=O)[C@@H](COC(C)=O)O1)C2`
Result: 0.343

Task: Return the recorded composite z-score value; entry: `CC(=O)OC[C@H]1O[C@@H](ON=C(C)CCC(=O)OC[C@H]2O[C@H](C#Cc3ccccc3)C=C[C@@H]2Oc2ccc(C)cc2)[C@H](OC(C)=O)[C@@H](OC(C)=O)[C@@H]1OC(C)=O`
Result: -0.561

Task: Return the recorded composite z-score value; entry: `CCN1C(=O)[C@H]2[C@H]3[C@H](O)[C@H](O)CC(=NOCC=C(C)CCC=C(C)C)[C@@H]3CC[C@H]2C1=O`
Result: -0.717

Task: Return the recorded composite z-score value; entry: COc1ccc(OC[C@@H]2CC3[C@@H](c4ccc(Br)cc4)[C@H](C)CC[C@H]3C(=O)O2)cc1 (stereo not given in full)
Result: -0.727

Task: Return the recorded composite z-score value; entry: C[C@@H]1CC[C@H]2C(=O)OC(CN3C(=O)c4ccccc4C3=O)CN2[C@H]1c1ccc(Br)cc1 (stereo not given in full)
Result: -0.0788

Task: Return the recorded composite z-score value; entry: CCOC(=O)[C@H](CC(C)C)NC(=O)CCC1CC(OC(=O)NCCc2ccc(F)cc2)CC2(CCCC(COC(=O)NCc3cccc(C(F)(F)F)c3)O2)O1 (stereo not given in full)
Result: -0.51
